- targetOfAssay: T1, CXC chemokine receptor type 4 (CXCR4) (human), P61073
- T1 chain: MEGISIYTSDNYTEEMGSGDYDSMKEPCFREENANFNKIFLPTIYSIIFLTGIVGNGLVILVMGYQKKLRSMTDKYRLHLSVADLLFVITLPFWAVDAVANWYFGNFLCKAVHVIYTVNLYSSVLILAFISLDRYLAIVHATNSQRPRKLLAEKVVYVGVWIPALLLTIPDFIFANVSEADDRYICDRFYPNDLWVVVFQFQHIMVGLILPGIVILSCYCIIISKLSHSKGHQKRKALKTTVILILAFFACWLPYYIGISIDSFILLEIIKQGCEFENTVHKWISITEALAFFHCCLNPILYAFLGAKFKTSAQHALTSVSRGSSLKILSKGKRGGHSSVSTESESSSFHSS
- assayComment: competition
- settings: chains peptide; modification not given
recordedMetric: IC50

Ask | IC50 lookup needed for LVRYTKKVPQVSTPTL [EPI-X4] , thanks.
Reply | 2.14 µM
